Origin of values: the RepoRT retention time repository

Below, each of the molecules is paired with its reported LC retention time value.
Assay Explanation: HILIC, Waters ACQUITY UPLC BEH Amide, 100 × 2.1 mm, 1.7 µm; A: water + 0.125% formic acid + 10 mM ammonium formate; B: 5% water + 95% acetonitrile + 0.125% formic acid + 10 mM ammonium formate; gradient (min/%B) 0/100 2/100 7.7/70 9.5/40 10.25/30 12.75/100 17/100
Condition Parameters: stereoisomer not certain
Numbers only; they are read as min.

Worked examples follow.
**Query** Any idea what its LC retention time is? The molecule is `CCOC(=O)C1=C(C)NC(C)=C(C(=O)OCC)C1c1ccccc1C=CC(=O)OC(C)(C)C`
**Result** 0.94

**Query** Any idea what its LC retention time is? The molecule is `O=C(O)CNC(=O)Cc1ccccc1`
**Result** 2.88

**Query** Any idea what its LC retention time is? The molecule is C=CCC1(C(C)C#CCC)C(=O)NC(=O)N(C)C1=O (stereo not drawn)
**Result** 6.9

**Query** Any idea what its LC retention time is? The molecule is `c1ccc2c(c1)Cc1ccccc1-2`
**Result** 6.66

**Query** Any idea what its LC retention time is? The molecule is `N#CCc1c[nH]c2ccccc12`
**Result** 8.02

Others:
**Query** Any idea what its LC retention time is? The molecule is CC(=O)NC(CC(C)C)C(=O)O (stereo not drawn)
**Result** 2.29

**Query** Any idea what its LC retention time is? The molecule is CN(C)c1nc2c(ncn2C2OC(CO)C(O)C2O)c(=O)[nH]1 (stereo not drawn)
**Result** 5.62

**Query** Any idea what its LC retention time is? The molecule is `COc1ccc(-c2coc3cc(O)ccc3c2=O)cc1`
**Result** 1.18

**Query** Any idea what its LC retention time is? The molecule is `CN(C)CCN(Cc1ccccc1)c1ccccn1`
**Result** 1.98

**Query** Any idea what its LC retention time is? The molecule is CNC1CCC(c2ccc(Cl)c(Cl)c2)c2ccccc21 (stereo not drawn)
**Result** 2.74

**Query** Any idea what its LC retention time is? The molecule is COC1C=COC2(C)Oc3c(C)c(O)c4c(O)c(c(C=NN5CCN(C6CCCC6)CC5)c(O)c4c3C2=O)NC(=O)C(C)=CC=CC(C)C(O)C(C)C(O)C(C)C(OC(C)=O)C1C (stereo not drawn)
**Result** 1.81

**Query** Any idea what its LC retention time is? The molecule is `CCCSc1ccc2nc(NC(=O)OC)[nH]c2c1`
**Result** 1.22

**Query** Any idea what its LC retention time is? The molecule is CCC(C)C(=O)OC1CC(O)C=C2C=CC(C)C(CCC(O)CC(O)CC(=O)O)C21 (stereo not drawn)
**Result** 1.8

* * *

Below, each of the molecules is paired with its reported LC retention time value.
Assay Explanation: HILIC, Waters ACQUITY UPLC BEH Amide, 100 × 2.1 mm, 1.7 µm; A: water + 0.125% formic acid + 10 mM ammonium formate; B: 5% water + 95% acetonitrile + 0.125% formic acid + 10 mM ammonium formate; gradient (min/%B) 0/100 2/100 7.7/70 9.5/40 10.25/30 12.75/100 17/100
Condition Parameters: stereoisomer not certain
Please make sure the unit comes right after the number.

Worked examples follow.
**Query** Any idea what its LC retention time is? The molecule is NC1C(O)OC(COP(=O)(O)O)C(O)C1O (stereo unspecified) [Glucosamine-6-phosphate]
**Result** 10.1 min

**Query** Any idea what its LC retention time is? The molecule is NC(C(=O)NC1C(=O)N2C(C(=O)O)=C(Cl)CSC12)c1ccccc1 (stereo unspecified)
**Result** 5.61 min

**Query** Any idea what its LC retention time is? The molecule is `NCCc1ccccn1`
**Result** 5.52 min

**Query** Any idea what its LC retention time is? The molecule is CC[N+](C)(CC)CCOC(=O)C(O)(c1ccccc1)C1CCCCC1 (stereo unspecified)
**Result** 2.01 min

**Query** Any idea what its LC retention time is? The molecule is OCC1OC(OCC2OC(O)C(O)C(O)C2O)C(O)C(O)C1O (stereo unspecified)
**Result** 7.19 min

Others:
**Query** Any idea what its LC retention time is? The molecule is C=CC1=C(C(=O)O)N2C(=O)C(NC(=O)C(=NO)c3csc(N)n3)C2SC1 (stereo unspecified)
**Result** 6.94 min

**Query** Any idea what its LC retention time is? The molecule is CC(=O)NC(CS)C(=O)O (stereo unspecified)
**Result** 5.28 min

**Query** Any idea what its LC retention time is? The molecule is O=C(O)Cc1c[nH]c2ccc(O)cc12 [5-Hydroxy-3-indoleacetic acid]
**Result** 1.78 min

**Query** Any idea what its LC retention time is? The molecule is O=C(CCNNC(=O)c1ccncc1)NCc1ccccc1 [Nialamide]
**Result** 1.69 min

**Query** Any idea what its LC retention time is? The molecule is `CC(C=CC1=C(C)CCCC1(C)C)=CC=CC(C)=CC(=O)O`
**Result** 1.11 min

**Query** Any idea what its LC retention time is? The molecule is CCNC(=O)CCC(N)C(=O)O (stereo unspecified)
**Result** 7.66 min

**Query** Any idea what its LC retention time is? The molecule is `C[N+](C)(C)CC(=O)[O-]`
**Result** 7.24 min

**Query** Any idea what its LC retention time is? The molecule is `CN(C)CCOc1ccc(C(=C(CCCl)c2ccccc2)c2ccccc2)cc1`
**Result** 1.89 min
